# EXPERIMENTAL_DETAILS: log P determination by HPLC on reverse-phase column (C 18), acidic range pH 2.3 (EEC Directive 79/831 Annex V. A8)
# Format: physicochemical
# CONDITION_NOTES: Table 1 (I-c); pH 2.3, HPLC C18, 43° C.; main diastereomer or, where several values in a cell, the individual diastereomers
QUANTITY_MEASURED: logP

1. CC(C)CCC1CCCCC1NC(=O)c1cn(C)nc1C(F)(F)F (mixture of isomers) [I-c-57]
4.19
2. Cn1nc(C(F)(F)F)c(C(=O)NC2CCCCC2CCC(C)(C)C)c1F (stereo not drawn) [I-c-82]
4.72
3. CC1=C(C(=O)NC2CCCCC2C(C)CC(C)C)SCCO1 (stereo not drawn) [I-c-10]
4.83
4. CC(C)CCC1CCCCC1NC(=O)c1ccccc1I (stereo not drawn) [I-c-70]
4.66
5. Cn1cc(C(=O)NC2CCCCC2CCC(C)(C)C)c(C(F)(F)F)c1 (mixture of isomers) [I-c-41]
4.88
6. CC(C)CCC1CCCCC1NC(=O)c1cn(C)cc1C(F)(F)F (stereo not drawn) [I-c-69]
4.61
7. Cc1nn(C)c(F)c1C(=O)NC1CCCCC1CCC(C)C (mixture of isomers) [I-c-60]
3.79
8. CC(C)CCCC1CCCCC1NC(=O)c1cn(C)nc1C(F)F (stereo not drawn) [I-c-83]
4.40
9. CC(C)CCC1CCCCC1NC(=O)c1cccnc1Cl (mixture of isomers) [I-c-58]
3.76

###

# EXPERIMENTAL_DETAILS: log P determination by HPLC on reverse-phase column (C 18), acidic range pH 2.3 (EEC Directive 79/831 Annex V. A8)
# Assay type: physicochemical
# CONDITION_NOTES: Table 1 (I-c); pH 2.3, HPLC C18, 43° C.; main diastereomer or, where several values in a cell, the individual diastereomers
QUANTITY_MEASURED: logP

1) CC(CC(C)(C)C)C1CCCCC1NC(=O)c1sccc1C(F)(F)F (stereo not shown)
5.29
2) CC(C)CCC1CCCCC1NC(=O)c1ccccc1Cl (stereo not shown)
4.54
3) Cc1nc(C(F)(F)F)c(C(=O)NC2CCCCC2C(C)CC(C)C)s1 (stereo not shown)
4.71
4) CC(C)CC(C)C1CCCCC1NC(=O)c1sccc1C(F)(F)F (stereo not shown)
5.03
5) Cc1occc1C(=O)NC1CCCCC1CCC(C)(C)C (stereo not shown)
4.55
6) Cc1nn(C)cc1C(=O)NC1CCCCC1C(C)CC(C)C (stereo not shown)
3.47
7) CC(C)CCC1CCCCC1NC(=O)c1c(C(F)(F)F)nn(C)c1F (stereo not shown)
4.47
8) CC1=C(C(=O)NC2CCCCC2C(C)CC(C)C)CCO1 (stereo not shown)
4.06
9) CC(C)(C)CCC1CCCCC1NC(=O)C1=C(C(F)(F)F)OCCS1 (mixture of isomers)
4.66
10) Cc1nc(C(F)F)c(C(=O)NC2CCCCC2C(C)CC(C)C)s1 (stereo not shown)
4.53

###

# EXPERIMENTAL_DETAILS: log P determination by HPLC on reverse-phase column (C 18), acidic range pH 2.3 (EEC Directive 79/831 Annex V. A8)
# Format: physicochemical
# CONDITION_NOTES: Table 1 (I-c); pH 2.3, HPLC C18, 43° C.; main diastereomer or, where several values in a cell, the individual diastereomers
QUANTITY_MEASURED: logP

1. CC(C)CCCC1CCCCC1NC(=O)c1cn(C)cc1C(F)(F)F (centres unmarked) [I-c-86]
5.05
2. Cc1ccsc1C(=O)NC1CCCCC1C(C)CC(C)C (centres unmarked) [I-c-9]
5.15
3. CC(C)(C)CCC1CCCCC1NC(=O)c1sccc1C(F)(F)F (centres unmarked) [I-c-95]
5.03
4. CC1=C(C(=O)NC2CCCCC2CCC(C)C)SCCO1 (mixture of isomers) [I-c-68]
4.51
5. CC(C)CCC1CCCCC1NC(=O)c1ccsc1I (centres unmarked) [I-c-72]
4.8

###

# EXPERIMENTAL_DETAILS: log P determination by HPLC on reverse-phase column (C 18), acidic range pH 2.3 (EEC Directive 79/831 Annex V. A8)
# Type: physicochemical
# CONDITION_NOTES: Table 1 (I-c); pH 2.3, HPLC C18, 43° C.; main diastereomer or, where several values in a cell, the individual diastereomers
QUANTITY_MEASURED: logP

1. Cc1nc(C(F)F)c(C(=O)NC2CCCCC2CCC(C)C)s1 (mixture of isomers)
4.46
2. Cn1cc(C(=O)NC2CCCCC2CCC(C)(C)C)c(C(F)F)n1 (stereo not drawn) [I-c-81]
4.24
3. Cc1occc1C(=O)NC1CCCCC1CCC(C)C (mixture of isomers)
4.28
4. Cn1cc(C(=O)NC2CCCCC2CCC(C)(C)C)c(C(F)(F)F)n1 (mixture of isomers)
4.45
5. CC(C)CCC1CCCCC1NC(=O)C1=C(C(F)(F)F)OCCS1 (mixture of isomers)
4.42
6. CC(C)CC(C)C1CCCCC1NC(=O)c1cn(C)nc1C(F)(F)F (stereo not drawn)
4.53
7. CC(C)CC(C)C1CCCCC1NC(=O)c1nccnc1Cl (stereo not drawn)
4.23
8. CC(C)CC(C)C1CCCCC1NC(=O)c1ccsc1C(F)(F)F (stereo not drawn)
4.92
9. Cn1nc(C(F)(F)F)c(C(=O)NC2CCCCC2CCC(C)(C)C)c1F (stereo not drawn) [I-c-24]
4.72
10. Cc1occc1C(=O)NC1CCCCC1C(C)CC(C)C (stereo not drawn)
4.58
11. Cc1nn(C)c(Cl)c1C(=O)NC1CCCCC1CCC(C)C (stereo not drawn)
4.07
12. Cn1cc(C(=O)NC2CCCCC2CCC(C)(C)C)c(C(F)F)n1 (stereo not drawn) [I-c-19]
4.22
